Tested on: Methicillin Resistant Staphylococcus aureus strain USA 300 (NRS384)
Test: MIC, broth micro-dilution technique (CLSI)
Type: cell-based
Conditions: Staphylococcus aureus, 22 h, read-out: MIC (μg/mL) S. aureus
Measured MIC values are reported for all entries that follow.
readout: MIC (µg/mL)

test_smiles=CCCCCCCCc1ccc(C(=O)N(C)[C@@H]2C(=O)N[C@@H](C)C(=O)N[C@H](C(=O)NCB3O[C@@H]4C[C@@H]5C[C@@H](C5(C)C)[C@]4(C)O3)Cc3ccc(OCCN)c(c3)-c3cc2ccc3OCCN)cc1 test_value=6
test_smiles=C[C@H](NC(=O)[C@@H]1Cc2ccc(O)c(c2)-c2cc(ccc2O)[C@H](N(C)C(=O)[C@H](CCCCN)NC(=O)c2ccc(-c3ccc(Cl)cc3)cc2)C(=O)N[C@@H](C)C(=O)N1)C(=O)CN=[N+]=[N-] test_value=12
test_smiles=CC(=O)[C@H](C)NC(=O)[C@@H]1Cc2ccc(O)c(c2)-c2cc(ccc2OCCO)[C@H](N(C)C(=O)[C@H](CCCCN)NC(=O)c2ccc(-c3ccc(Cl)cc3)cc2)C(=O)N[C@@H](C)C(=O)N1 test_value=8
test_smiles=C[C@@H]1NC(=O)[C@@H](N(C)C(=O)[C@H](CCCCN)NC(=O)c2ccc(-c3ccc(-c4ccccc4)cc3)cc2)c2ccc(OCCN)c(c2)-c2cc(ccc2OCCN)C[C@@H](C(=O)O)NC1=O test_value=0.25

* * *

System: Methicillin Resistant Staphylococcus aureus strain USA 300 (NRS384)
Test: MIC, broth micro-dilution technique (CLSI)
Assay type: cell-based
Details: Staphylococcus aureus, 22 h, read-out: MIC (μg/mL) S. aureus
Measured MIC values are reported for all entries that follow.
readout: MIC

molecule="CCCCCCCCCCNCCS(=O)(=O)N[C@@H](CCCCN)C(=O)N(C)[C@@H]1C(=O)N[C@@H](C)C(=O)N[C@H](C(=O)O)Cc2ccc(O)c(c2)-c2cc1ccc2O [Compound 214]" test_value="2.8 µg/mL"
molecule="CCCCCCCC(=O)NCCC(=O)N[C@@H](CCCCN)C(=O)N(C)[C@@H]1C(=O)N[C@@H](C)C(=O)N[C@H](C(=O)N[C@@H](C)C(=O)CCl)Cc2ccc(O)c(c2)-c2cc1ccc2O [Compound 107]" test_value="64 µg/mL"
molecule="C[C@@H]1NC(=O)[C@@H](N(C)C(=O)[C@H](CCCCN)NC(=O)c2ccc(-c3ccc(C(F)(F)F)cc3)cc2)c2ccc(OCCN)c(c2)-c2cc(ccc2OCCN)C[C@@H](C(=O)O)NC1=O [Compound 279]" test_value="2 µg/mL"
molecule="C[C@@H]1NC(=O)[C@@H](N(C)C(=O)[C@H](CCCCN)NC(=O)c2ccc(-c3ccc(Cl)cc3)cc2)c2ccc(O)c(c2)-c2cc(ccc2O)C[C@@H](C(=O)N[C@@H](C)C(=O)N2CCC[C@H]2CO)NC1=O [Compound 157]" test_value="> 64 µg/mL"
molecule="CCCCCCCCCC(=O)N[C@@H](CCN)C(=O)N(C)[C@@H]1C(=O)N[C@@H](C)C(=O)N[C@H](C(=O)O)Cc2ccc(OCCN)c(c2)-c2cc1ccc2OCCN [Compound 306]" test_value="3 µg/mL"

* * *

Tested on: Methicillin Resistant Staphylococcus aureus strain USA 300 (NRS384)
Assay: MIC, broth micro-dilution technique (CLSI)
Type: cell-based
Settings: Staphylococcus aureus, 22 h, read-out: MIC (μg/mL) S. aureus
Measured log10 of MIC values are reported for all entries that follow.
readout: log10 of MIC (log10 of the value in µg/mL)

compound="C[C@H](NC(=O)[C@@H]1Cc2ccc(O)c(c2)-c2cc(ccc2O)[C@H](N(C)C(=O)[C@H](CCCCN)NC(=O)c2ccc(-c3ccc(Cl)cc3)cc2)C(=O)N[C@@H](C)C(=O)N1)C(=O)CCC(N)=O [Compound 148]" target_system="Methicillin Resistant Staphylococcus aureus strain USA 300 (NRS384)" test_value=1.81
compound="CCCCc1ccc(-c2ccc(C(=O)N[C@@H](CCCN)C(=O)N(C)[C@@H]3C(=O)N[C@@H](C)C(=O)N[C@H](C(N)=O)Cc4ccc(OCCN)c(c4)-c4cc3ccc4OCCN)cc2)cc1 [Compound 335]" target_system="Methicillin Resistant Staphylococcus aureus strain USA 300 (NRS384)" test_value=-0.72
compound="CCCCCCCCc1ccc(C(=O)N[C@@H](CN)C(=O)N(C)[C@@H]2C(=O)N[C@@H](C)C(=O)N[C@H](C(=O)O)Cc3ccc(OCCN)c(c3)-c3cc2ccc3OCCN)cc1 [Compound 300]" target_system="Methicillin Resistant Staphylococcus aureus strain USA 300 (NRS384)" test_value=-0.30
compound="CC(=O)[C@H](C)NC(=O)[C@@H]1Cc2ccc(O)c(c2)-c2cc(ccc2OCC(=O)O)[C@H](N(C)C(=O)[C@H](CCCCN)NC(=O)c2ccc(-c3ccc(Cl)cc3)cc2)C(=O)N[C@@H](C)C(=O)N1 [Compound 120]" target_system="Methicillin Resistant Staphylococcus aureus strain USA 300 (NRS384)" test_value=1.71
compound="CCCCCCCC(=O)NCCC(=O)N[C@@H](CCCCN)C(=O)N(C)[C@@H]1C(=O)N[C@@H](C)C(=O)N[C@H](C(=O)N[C@@H](C)C(=O)C2CO2)Cc2ccc(O)c(c2)-c2cc1ccc2O (stereo partly drawn) [Compound 101]" target_system="Methicillin Resistant Staphylococcus aureus strain USA 300 (NRS384)" test_value=1.81
compound="C[C@H](NC(=O)[C@@H]1Cc2ccc(O)c(c2)-c2cc(ccc2O)[C@H](N(C)C(=O)[C@H](CCCCN)NC(=O)c2ccc(-c3ccc(Cl)cc3)cc2)C(=O)N[C@@H](C)C(=O)N1)C(=O)CS(N)(=O)=O [Compound 143]" target_system="Methicillin Resistant Staphylococcus aureus strain USA 300 (NRS384)" test_value=0.80
compound="CCCCCCCCCCCCCC(=O)N[C@@H](CCN)C(=O)N(C)[C@@H]1C(=O)N[C@@H](C)C(=O)N[C@H](C(=O)N[C@@H](C)B2O[C@@H]3C[C@@H]4C[C@@H](C4(C)C)[C@]3(C)O2)Cc2ccc(OCCN)c(c2)-c2cc1ccc2OCCN [Compound 325]" target_system="Methicillin Resistant Staphylococcus aureus strain USA 300 (NRS384)" test_value=-0.89
compound="CCCCCCCCCCCCCC(=O)N[C@@H](CCCCN)C(=O)N(C)[C@@H]1C(=O)N[C@@H](C)C(=O)N[C@H](C(=O)O)Cc2ccc(OCCN)c(c2)-c2cc1ccc2OCCN [Compound 293]" target_system="Methicillin Resistant Staphylococcus aureus strain USA 300 (NRS384)" test_value=-1.20
compound="CCCCCCCCCCNCCC(=O)N[C@@H](CCCCN)C(=O)N(C)[C@@H]1C(=O)N[C@@H](C)C(=O)N[C@H](C(=O)O)Cc2ccc(O)c(c2)-c2cc1ccc2OCCN [Compound 113]" target_system="Methicillin Resistant Staphylococcus aureus strain USA 300 (NRS384)" test_value=0.98
compound="CCCCc1ccc(-c2ccc(C(=O)N[C@@H](CCCN)C(=O)N(C)[C@@H]3C(=O)N[C@@H](C)C(=O)N[C@H](CO)Cc4ccc(OCCN)c(c4)-c4cc3ccc4OCCN)cc2)cc1 [Compound 336]" target_system="Methicillin Resistant Staphylococcus aureus strain USA 300 (NRS384)" test_value=-0.30
compound="CONC(=O)[C@@H]1CCCN1C(=O)[C@H](C)NC(=O)[C@@H]1Cc2ccc(O)c(c2)-c2cc(ccc2O)[C@H](N(C)C(=O)[C@H](CCCCN)NC(=O)c2ccc(-c3ccc(Cl)cc3)cc2)C(=O)N[C@@H](C)C(=O)N1 [Compound 185]" target_system="Methicillin Resistant Staphylococcus aureus strain USA 300 (NRS384)" test_value=1.65
compound="CCCCc1ccc(-c2ccc(C(=O)N[C@@H](CN)C(=O)N(C)[C@@H]3C(=O)N[C@@H](C)C(=O)N[C@H](C(=O)N[C@@H](C)B4O[C@@H]5C[C@@H]6C[C@@H](C6(C)C)[C@]5(C)O4)Cc4ccc(OCCN)c(c4)-c4cc3ccc4OCCN)cc2)cc1 [Compound 317]" target_system="Methicillin Resistant Staphylococcus aureus strain USA 300 (NRS384)" test_value=-0.89
compound="C[C@H](NC(=O)[C@@H]1Cc2ccc(O)c(c2)-c2cc(ccc2O)[C@H](N(C)C(=O)[C@H](CCCCN)NC(=O)c2ccc(-c3ccc(Cl)cc3)cc2)C(=O)N[C@@H](C)C(=O)N1)C(=O)COC(=O)c1ncccn1 [Compound 122]" target_system="Methicillin Resistant Staphylococcus aureus strain USA 300 (NRS384)" test_value=0.15
compound="C[C@H](NC(=O)[C@@H]1Cc2ccc(O)c(c2)-c2cc(ccc2O)[C@H](N(C)C(=O)[C@H](CCCCN)NC(=O)c2ccc(-c3ccc(Cl)cc3)cc2)C(=O)N[C@@H](C)C(=O)N1)C(=O)CCl [Compound 108]" target_system="Methicillin Resistant Staphylococcus aureus strain USA 300 (NRS384)" test_value=0.60
compound="CCCCc1ccc(-c2ccc(C(=O)N[C@@H](CCCCN)C(=O)N(C)[C@@H]3C(=O)N[C@@H](C)C(=O)N[C@H](C(=O)NCc4nnn[nH]4)Cc4ccc(OCCN)c(c4)-c4cc3ccc4OCCN)cc2)cc1 [Compound 328]" target_system="Methicillin Resistant Staphylococcus aureus strain USA 300 (NRS384)" test_value=0.30
compound="CCCCc1ccc(-c2cccc(C(=O)N[C@@H](CCCCN)C(=O)N(C)[C@@H]3C(=O)N[C@@H](C)C(=O)N[C@H](C(=O)O)Cc4ccc(OCCN)c(c4)-c4cc3ccc4OCCN)c2)cc1 [Compound 288]" target_system="Methicillin Resistant Staphylococcus aureus strain USA 300 (NRS384)" test_value=-0.30
compound="C[C@@H]1NC(=O)[C@@H](N(C)C(=O)[C@H](CCCCN)NC(=O)c2ccc(-c3ccc(Cl)cc3)cc2)c2ccc(OCCN)c(c2)-c2cc(ccc2O)C[C@@H](C(=O)O)NC1=O [Compound 312]" target_system="Methicillin Resistant Staphylococcus aureus strain USA 300 (NRS384)" test_value=1.38
compound="CCCCc1ccc(-c2ccc(C(=O)N[C@@H](CCCN)C(=O)N(C)[C@@H]3C(=O)N[C@@H](C)C(=O)N[C@H](C(=O)NS(C)(=O)=O)Cc4ccc(OCCN)c(c4)-c4cc3ccc4OCCN)cc2)cc1 [Compound 337]" target_system="Methicillin Resistant Staphylococcus aureus strain USA 300 (NRS384)" test_value=0.30
